The reported measurements were obtained from the supplement of paper PMC8728848.

Target: Gal3S(b1-4)[Fuc(a1-3)]Glc6S
Run Description: glycan array binding signal (z-score within array); higher = stronger binding
Conditions Used: glycan notation: IUPAC condensed, linker removed
This excerpt belongs to a sample that is enriched for the strongest signals.
Recorded Metric: glycan array binding signal (z-score)
Number only, no unit.

Lab book: glycan array binding signal (z-score) of EUL D1A second (Oryza sativa) (protein) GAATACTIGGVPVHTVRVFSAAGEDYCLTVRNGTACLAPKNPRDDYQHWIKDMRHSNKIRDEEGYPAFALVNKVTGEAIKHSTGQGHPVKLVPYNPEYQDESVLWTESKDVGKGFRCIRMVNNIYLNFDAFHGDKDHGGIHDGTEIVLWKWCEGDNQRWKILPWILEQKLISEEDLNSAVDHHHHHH noted as 2.74

Notebook: SP15308C-bot-338-23-338 (Bacteroides ovatus) (protein) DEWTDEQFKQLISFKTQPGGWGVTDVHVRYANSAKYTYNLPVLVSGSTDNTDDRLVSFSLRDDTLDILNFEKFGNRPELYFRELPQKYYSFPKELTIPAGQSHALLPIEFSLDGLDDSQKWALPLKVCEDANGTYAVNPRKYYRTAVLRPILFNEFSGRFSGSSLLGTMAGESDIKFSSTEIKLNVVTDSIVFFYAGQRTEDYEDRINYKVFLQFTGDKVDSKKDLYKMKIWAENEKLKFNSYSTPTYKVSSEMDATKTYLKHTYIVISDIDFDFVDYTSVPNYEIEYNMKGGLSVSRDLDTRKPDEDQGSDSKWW , glycan array binding signal (z-score) read as 0.68

glycan array binding signal (z-score) in this record for SalT (Orysata sativa) (protein) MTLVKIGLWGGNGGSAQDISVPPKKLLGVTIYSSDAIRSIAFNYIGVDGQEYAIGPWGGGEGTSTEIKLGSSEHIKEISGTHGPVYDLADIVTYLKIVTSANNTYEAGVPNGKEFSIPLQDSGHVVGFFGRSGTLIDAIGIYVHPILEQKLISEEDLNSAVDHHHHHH : -0.3

get_value(item= Gal 8 (Mus musculus), Q9JL15 (protein) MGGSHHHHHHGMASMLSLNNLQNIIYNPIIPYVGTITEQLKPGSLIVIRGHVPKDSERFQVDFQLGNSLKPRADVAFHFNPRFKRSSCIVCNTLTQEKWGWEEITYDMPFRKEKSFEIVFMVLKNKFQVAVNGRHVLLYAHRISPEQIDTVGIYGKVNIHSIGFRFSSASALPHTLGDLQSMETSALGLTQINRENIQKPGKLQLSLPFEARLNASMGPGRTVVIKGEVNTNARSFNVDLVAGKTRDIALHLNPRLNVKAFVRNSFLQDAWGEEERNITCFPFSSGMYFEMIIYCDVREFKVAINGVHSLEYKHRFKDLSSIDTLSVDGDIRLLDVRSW , readout=glycan array binding signal (z-score)) returns -0.498
